All figures here come from paper PMC6222829.

System: PC-3 cell line
Experiment: MTS cytotoxicity assay, PC-3
Type: cell-based, human
Details: Homo sapiens, PC-3; MTS assay, 72 h incubation
Record form. Attribute: pIC50. Fill in for each entry.
In simple prose, pIC50 is minus the logarithm base ten of a concentration in moles per litre.

Query pIC50 for O=C(NNC(=S)Nc1cccc(Br)c1)c1cc(-c2ccc(F)cc2F)ccc1O
4.38

Query pIC50 for CCc1ccc(NC(=S)NNC(=O)c2cc(-c3ccc(F)cc3F)ccc2O)cc1
4.93

Query pIC50 for COc1ccccc1-n1c(-c2cc(-c3ccc(F)cc3F)ccc2O)n[nH]c1=S
3.77

Query pIC50 for CCCn1c(-c2cc(-c3ccc(F)cc3F)ccc2O)n[nH]c1=S
3.76

Query pIC50 for O=C(NC(=S)NNC(=O)c1cc(-c2ccc(F)cc2F)ccc1O)c1ccccc1
5.55

Query pIC50 for Oc1ccc(-c2ccc(F)cc2F)cc1-c1n[nH]c(=S)n1-c1cccc(F)c1
4.47

Query pIC50 for COc1ccccc1NC(=S)NNC(=O)c1cc(-c2ccc(F)cc2F)ccc1O
5.80

Query pIC50 for Oc1ccc(-c2ccc(F)cc2F)cc1-c1n[nH]c(=S)n1-c1cccc(Cl)c1
4.47

Query pIC50 for O=C(NNC(=S)Nc1ccc(Br)cc1)c1cc(-c2ccc(F)cc2F)ccc1O
4.93

Query pIC50 for Oc1ccc(-c2ccc(F)cc2F)cc1-c1n[nH]c(=S)n1-c1ccc(Br)cc1
3.84
